System: Haemonchus contortus
Method notes: Haemonchus contortus (HAEMCO) larval mortality assay
Condition parameters: 120 h, application rate 20 ppm, after 5 days, read-out: activity (percentage of larval mortality)
Overview of recorded mortality at 20 ppm for various compounds
Returns: string containing the number followed by the unit.

Completed entries (count: 5):
INSERT INTO measurements (compound, result) VALUES
  ('O=C(NCC(F)(F)c1ccc(-c2cncc(Cl)c2)cc1Cl)c1ccccc1C(F)(F)F [Example 1-97]', '100%'),
  ('O=C(NCC(F)c1ccc(-c2ccnc(F)c2)cc1Cl)c1ccccc1C(F)(F)F (centres unmarked) [Example 1-78]', '100%'),
  ('O=C(NCCc1cccc(-c2ccc(OCC(F)(F)F)nc2)c1)c1ccccc1C(F)(F)F [Example 1-1]', '80%'),
  ('O=C(NCC(F)c1ccc(-c2cccnc2Cl)cc1Cl)c1nccnc1C(F)(F)F (centres unmarked) [Example 1-79]', '100%'),
  ('COc1ccc(-c2ccc(C(F)(F)CNC(=O)c3ccccc3C(F)(F)F)c(Cl)c2)cn1 [Example 1-90]', '100%');

Which mortality at 20 ppm reading was recorded for the compound O=C(NCCc1ccc(-c2cncc(Cl)c2)cc1Cl)c1ccccc1C(F)(F)F [Example 1-45] ?
100%

Can you handle COc1ccc(-c2ccc(C(F)(F)CNC(=O)c3ccccc3C(F)(F)F)c(F)c2)cn1 [Example 1-110] next?
90%

Note, next up: Cc1nc(Cl)ccc1-c1cccc(CCNC(=O)c2ccccc2C(F)(F)F)c1 [Example 1-5]
90%

====

Test system: Haemonchus contortus
Method notes: Haemonchus contortus (HAEMCO) larval mortality assay
Condition parameters: 120 h, application rate 20 ppm, after 5 days, read-out: activity (percentage of larval mortality)
Observable: mortality at 20 ppm
State the value, then name its unit.

In the examples that follow, each entry is paired with its recorded mortality at 20 ppm.
INSERT INTO assay_data (molecule, observable, result) VALUES
  ('O=C(NCC(F)(F)c1ccc(-c2cncc(Cl)c2)cc1F)c1ccccc1C(F)(F)F', 'mortality at 20 ppm', '100%'),
  ('O=C(NCCc1ccc(-c2ccc(F)nc2)cc1Cl)c1ccccc1C(F)(F)F', 'mortality at 20 ppm', '100%'),
  ('O=C(NCCc1ccc(-c2cncc(F)c2)cc1Cl)c1ccccc1C(F)(F)F', 'mortality at 20 ppm', '100%'),
  ('O=C(NCC(F)c1ccc(-c2cncc(Cl)c2)cc1Cl)c1nccnc1C(F)(F)F (stereo not drawn)', 'mortality at 20 ppm', '100%'),
  ('CC(F)(CNC(=O)c1ccccc1Cl)c1ccc(-c2cncc(F)c2)cc1Cl (stereo not drawn)', 'mortality at 20 ppm', '100%'),
  ('O=C(NCC(F)(F)c1ccc(-c2ccc(Cl)nc2)cc1Cl)c1cccnc1C(F)(F)F', 'mortality at 20 ppm', '90%'),
  ('O=C(NCC(F)c1ccc(-c2ccc(C(F)(F)F)nc2)cc1Cl)c1ccccc1C(F)(F)F (stereo not drawn)', 'mortality at 20 ppm', '90%'),
  ('Cc1cc(-c2ccc(CCNC(=O)c3ccccc3C(F)(F)F)cc2)ccn1', 'mortality at 20 ppm', '80%'),
  ('O=C(NCCc1ccc(-c2cncc(F)c2)cc1)c1cccnc1C(F)(F)F', 'mortality at 20 ppm', '80%'),
  ('O=C(NCC(F)c1ccc(-c2ccc(Cl)nc2)cc1Cl)c1cccnc1C(F)(F)F (stereo not drawn)', 'mortality at 20 ppm', '100%');

Record request: mortality at 20 ppm value, item O=C(NCC(F)(F)c1ccc(-c2ccc(F)nc2)cc1F)c1ccccc1C(F)(F)F
100%

Same lookup for Cn1cc(-c2ccc(CCNC(=O)c3ccccc3C(F)(F)F)cc2)cn1 , please.
80%

Please do the same for O=C(NCC(F)c1ccc(-c2cccnc2Cl)cc1Cl)c1ccccc1C(F)(F)F (stereo not drawn) as well.
100%
